# target_desc: integrin αvβ8 (Homo sapiens, UniProt P06756+P26012)
# Sequence (P06756 31-889 limits assumed): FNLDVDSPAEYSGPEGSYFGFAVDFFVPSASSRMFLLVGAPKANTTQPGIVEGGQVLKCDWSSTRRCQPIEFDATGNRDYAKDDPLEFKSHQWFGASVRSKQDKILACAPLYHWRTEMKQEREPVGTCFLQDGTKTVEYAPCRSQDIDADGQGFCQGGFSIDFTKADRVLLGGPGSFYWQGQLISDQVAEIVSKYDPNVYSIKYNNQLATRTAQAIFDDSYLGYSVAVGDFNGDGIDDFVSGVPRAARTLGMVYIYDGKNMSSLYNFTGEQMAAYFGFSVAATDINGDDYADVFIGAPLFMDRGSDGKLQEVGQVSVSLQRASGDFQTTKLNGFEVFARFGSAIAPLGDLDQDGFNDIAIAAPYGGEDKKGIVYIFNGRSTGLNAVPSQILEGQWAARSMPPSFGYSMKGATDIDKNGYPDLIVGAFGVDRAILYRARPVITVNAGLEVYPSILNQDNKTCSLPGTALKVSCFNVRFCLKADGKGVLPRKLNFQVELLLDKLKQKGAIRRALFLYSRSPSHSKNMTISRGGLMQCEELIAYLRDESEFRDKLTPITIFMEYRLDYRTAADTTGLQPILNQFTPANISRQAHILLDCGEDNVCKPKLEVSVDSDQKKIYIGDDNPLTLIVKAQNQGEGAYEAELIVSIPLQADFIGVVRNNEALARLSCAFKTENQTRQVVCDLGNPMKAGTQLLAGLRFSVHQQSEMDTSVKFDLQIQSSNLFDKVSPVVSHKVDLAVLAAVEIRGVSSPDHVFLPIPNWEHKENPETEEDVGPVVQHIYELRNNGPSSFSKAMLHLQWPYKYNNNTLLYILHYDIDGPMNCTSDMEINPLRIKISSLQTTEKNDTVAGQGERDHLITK
# Sequence (P06756 891-1048 partner limits assumed): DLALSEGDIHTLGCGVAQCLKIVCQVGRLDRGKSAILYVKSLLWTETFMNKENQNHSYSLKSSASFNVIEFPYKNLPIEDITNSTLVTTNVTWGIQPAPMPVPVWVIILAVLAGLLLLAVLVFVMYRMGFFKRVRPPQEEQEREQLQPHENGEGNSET
# Sequence (P26012 43-769): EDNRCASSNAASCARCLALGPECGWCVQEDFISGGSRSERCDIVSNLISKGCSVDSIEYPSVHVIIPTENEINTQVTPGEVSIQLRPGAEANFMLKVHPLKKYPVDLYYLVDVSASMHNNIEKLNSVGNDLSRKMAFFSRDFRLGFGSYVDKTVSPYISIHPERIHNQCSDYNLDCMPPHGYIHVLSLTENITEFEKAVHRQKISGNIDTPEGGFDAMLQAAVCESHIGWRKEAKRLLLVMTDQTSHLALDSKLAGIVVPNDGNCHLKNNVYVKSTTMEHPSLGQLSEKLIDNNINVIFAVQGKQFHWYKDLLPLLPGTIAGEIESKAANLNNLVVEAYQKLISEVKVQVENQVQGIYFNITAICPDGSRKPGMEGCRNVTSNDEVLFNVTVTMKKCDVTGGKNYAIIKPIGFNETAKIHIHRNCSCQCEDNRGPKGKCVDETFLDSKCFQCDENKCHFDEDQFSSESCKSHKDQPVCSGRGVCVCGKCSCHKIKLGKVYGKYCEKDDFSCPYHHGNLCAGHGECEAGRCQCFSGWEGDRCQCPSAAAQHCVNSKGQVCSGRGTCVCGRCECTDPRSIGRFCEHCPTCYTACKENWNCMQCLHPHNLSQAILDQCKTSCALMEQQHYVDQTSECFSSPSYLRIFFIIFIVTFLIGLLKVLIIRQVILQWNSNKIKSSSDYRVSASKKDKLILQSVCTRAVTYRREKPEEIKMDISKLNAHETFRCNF
# test_details: integrin αvβ8-mediated attachment of transfected HEK-293 cells to LAP
# measurement_context: mean and SD, at least 3 independent assays; transfected HEK-293, LAP ligand; read-out: IC50, inhibition of αvβ8-mediated cell attachment
endpoint_name: pIC50
// returns pIC50 (minus log10 of molar concentration), number only

Recorded pIC50 for CC(C)(C)c1cc(Br)cc([C@H](CC(=O)O)NC(=O)CNC(=O)c2cc(O)cc(NC3=NCC(O)CN3)c2)c1 (stereo partly shown) , please?
8.24

---

# target_desc: integrin αvβ3 (Homo sapiens, UniProt P05106+P06756)
# Sequence (P06756 31-889 limits assumed): as the sequence (P06756 31-889 limits assumed) above
# Sequence (P06756 891-1048 partner limits assumed): as the sequence (P06756 891-1048 partner limits assumed) above
# Sequence (P05106 27-788): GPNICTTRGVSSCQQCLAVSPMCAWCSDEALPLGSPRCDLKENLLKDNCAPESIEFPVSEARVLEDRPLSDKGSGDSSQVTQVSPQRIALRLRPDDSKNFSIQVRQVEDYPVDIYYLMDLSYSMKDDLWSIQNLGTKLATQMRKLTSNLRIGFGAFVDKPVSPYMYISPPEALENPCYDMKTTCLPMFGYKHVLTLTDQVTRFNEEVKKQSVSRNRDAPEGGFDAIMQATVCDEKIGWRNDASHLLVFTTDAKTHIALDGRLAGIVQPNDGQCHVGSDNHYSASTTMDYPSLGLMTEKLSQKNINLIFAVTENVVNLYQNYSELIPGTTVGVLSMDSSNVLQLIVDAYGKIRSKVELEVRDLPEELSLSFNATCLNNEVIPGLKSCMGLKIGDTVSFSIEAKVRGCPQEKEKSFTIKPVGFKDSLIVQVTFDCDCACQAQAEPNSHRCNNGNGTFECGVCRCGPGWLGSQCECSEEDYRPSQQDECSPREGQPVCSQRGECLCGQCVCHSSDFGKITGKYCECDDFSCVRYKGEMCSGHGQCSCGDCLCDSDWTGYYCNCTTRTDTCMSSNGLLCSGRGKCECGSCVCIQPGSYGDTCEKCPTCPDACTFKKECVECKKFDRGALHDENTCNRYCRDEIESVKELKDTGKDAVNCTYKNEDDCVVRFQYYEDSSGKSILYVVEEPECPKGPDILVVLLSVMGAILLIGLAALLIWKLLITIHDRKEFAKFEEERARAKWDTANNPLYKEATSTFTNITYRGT
# test_details: integrin αvβ3-mediated cell attachment to ligand
# Type: cell-based
# measurement_context: mean and SD, at least 3 independent assays; read-out: IC50, inhibition of αvβ3-mediated cell attachment
endpoint_name: IC50

Lab request: please report IC50 under test system integrin αvβ3 (Homo sapiens, UniProt P05106+P06756) for CC(C)(C)c1cc(Br)cc([C@H](CC(=O)O)NC(=O)CNC(=O)c2cc(O)cc(NC3=NCC(O)CN3)c2)c1 (stereo partly shown)
< 1 nM
